# System: C=C(OP(=O)(O)O)C(=O)O
# assay_overview: purified protein, by the assay type
# test_context: other: pH 7.5, 1 mM S3P
The entries below come with measured Km values attached.

[
  {
    "substance": "Mariprofundus ferrooxydans EPSP synthase DGT-14 v1, native wild type (GENBANK ZP_01452683; SEQ ID NO:17) (Mariprofundus ferrooxydans PV-1)",
    "target_or_test_system": "C=C(OP(=O)(O)O)C(=O)O",
    "Km": "208.6 µM"
  },
  {
    "substance": "bacterial EPSP synthase DGT-18 (GENBANK NP_928909.1) variant DGT-18 v6 (G→A at residue 96), SEQ ID NO:9 (Photorhabdus laumondii subsp. laumondii TTO1; G96A)",
    "target_or_test_system": "C=C(OP(=O)(O)O)C(=O)O",
    "Km": "375.9 µM"
  },
  {
    "substance": "bacterial EPSP synthase DGT-30 (GENBANK ZP_02156189.1) variant DGT-30 v6 (G→A at residue 96), SEQ ID NO:13 (Shewanella benthica KT99; G96A)",
    "target_or_test_system": "C=C(OP(=O)(O)O)C(=O)O",
    "Km": "414.9 µM"
  },
  {
    "substance": "bacterial EPSP synthase DGT-29 (GENBANK YP_322772.1) variant DGT-29 v6 (G→A at residue 96), SEQ ID NO:11 (Trichormus variabilis ATCC 29413; G96A)",
    "target_or_test_system": "C=C(OP(=O)(O)O)C(=O)O",
    "Km": "1502.2 µM"
  },
  {
    "substance": "bacterial EPSP synthase DGT-11 v6, native (GENBANK YP_989551.1), SEQ ID NO:5 (Bartonella bacilliformis INS)",
    "target_or_test_system": "C=C(OP(=O)(O)O)C(=O)O",
    "Km": "1576.6 µM"
  }
]
